Reported melting point values for the following compounds.
Give the number; °C is assumed, so skip it.

• CN1C(c2cccc(F)c2)c2ccccc2S1(=O)=O (single isomer, unassigned; (+)) [Compound 13] = 147

Look up melting point for this compound: CN1[C@@H](c2cccc(I)c2)c2ccccc2S1(=O)=O [Compound 15] 156

Look up melting point for this compound: Cc1cccc(C2c3ccccc3S(=O)(=O)N2C)c1 (single isomer, unassigned; (+)) [Compound 7] 154

Look up melting point for this compound: CN1[C@@H](c2cccc(Br)c2)c2ccccc2S1(=O)=O [Compound 9] 157

Look up melting point for this compound: CN1[C@@H](c2cccc(Cl)c2)c2ccccc2S1(=O)=O [Compound 11] 164

Look up melting point for this compound: Cc1ccccc1C1c2ccccc2S(=O)(=O)N1C (single isomer, unassigned; (+)) [Compound 18] 152
